- ASSAYED_SYSTEM: RXRγ (UniProt P28705)
- EXPERIMENT_SUMMARY: holoreceptor transactivation assay, RXRγ
- Assay type: cell-based
- ASSAY_SETUP: percentage compared to the standard compound
QUANTITY_NAME: RXR Trans. efficacy (number in parentheses) γ (%)

Check out these entries, answers already filled in.
| MOLECULE | UNIT_STRING | RECORDED_VALUE |
| --- | --- | --- |
| CC(/C=C/C(F)=C(/C)c1cc2c(c(Br)c1OC(C)C)C(C)(C)CC=C2C(C)C)=C\C(=O)O [Compound A-172] | % | 12 |
| CCC1=CC(C)(C)Oc2cc(OC)c(\C(C)=C/C=C/C(C)=C/C(=O)O)cc21 [Compound 42] | % | 125 |
| CCOc1c(\C(C)=C(F)/C=C/C(C)=C/C(=O)O)cc2c(c1Br)C(C)(C)CC=C2C(C)(C)C [Compound A-174] | % | 12 |
| CC/C(=C/C=C/C(C)=C/C(=O)O)c1cc2c(cc1OC)OC(C)(C)C=C2C(C)C [Compound 44] | % | 97 |
| CCOc1c(\C(C)=C(F)/C=C/C(C)=C/C(=O)O)cc2c(c1Br)C(C)(C)CC=C2C(C)C [Compound A-169] | % | 71 |
| CC/C(=C(F)/C=C/C(C)=C/C(=O)O)c1cc2c(cc1OC)OC(C)(C)C=C2C(C)(C)C [Compound 131] | % | 53 |
| CCOc1cc2c(cc1\C(CC)=C(F)/C=C/C(C)=C/C(=O)O)C(CC)=CCC2(C)C [Compound A-78] | % | 11 |
| CCOc1c(\C(C)=C(F)/C=C/C(C)=C/C(=O)O)cc2c(c1Cl)OC(C)(C)C=C2C(C)C [Compound 172] | % | 46 |
| CCOc1c(\C(C)=C/C=C/C(C)=C/C(=O)O)cc2c(c1Cl)OC(C)(C)C=C2C(C)C [Compound 50] | % | 47 |
| CCOc1c(\C(CC)=C(F)/C=C/C(C)=C/C(=O)O)cc2c(c1Br)C(C)(C)CC=C2C(C)CC (stereo not drawn) [Compound A-176] | % | 53 |

(I) CCOc1cc2c(cc1\C(C)=C(F)/C=C/C(C)=C/C(=O)O)C(C)=CCC2(C)C
(II) CCOc1cc2c(cc1\C(=C/C=C/C(C)=C/C(=O)O)CC)C(C)=CCC2(C)C [Compound A-16]
query: I would appreciate it if you could say which entry, I or II , has the lower RXR Trans. efficacy (number in parentheses) γ value. Returns: label corresponding to the selected item.
result: II
(II: 26%, I: 70%)

(P) CCOc1c(\C(C)=C(F)/C=C/C(C)=C/C(=O)O)cc2c(c1Cl)C(C)(C)CC=C2C(C)C [Compound A-177]
(Q) CC/C(=C(F)/C=C/C(C)=C/C(=O)O)c1cc2c(cc1OC)OC(C)(C)C=C2C [Compound 129]
query: I would appreciate it if you could say which entry, P or Q , has the lower RXR Trans. efficacy (number in parentheses) γ value. Returns: label corresponding to the selected item.
result: P
(P: 73%, Q: 108%)

(1) CCOc1c(\C(CC)=C(F)/C=C/C(C)=C/C(=O)O)cc2c(c1Br)C(C)(C)CC=C2C(C)C [Compound A-170]
(2) CCOc1c(\C(=C(F)/C=C/C(C)=C/C(=O)O)C(C)C)cc2c(c1Br)C(C)(C)CC=C2C(C)C [Compound A-171]
(3) CC/C(=C(F)/C=C/C(C)=C/C(=O)O)c1cc2c(cc1OC)OC(C)(C)C=C2C(C)C [Compound 130]
(4) CCOc1cc2c(cc1\C(C)=C(F)/C=C/C(C)=C/C(=O)O)C(C(C)(C)C)=CCC2(C)C [Compound A-82]
(5) CCOc1cc2c(cc1\C(CC)=C(F)/C=C/C(C)=C/C(=O)O)C(C(C)(C)C)=CCC2(C)C [Compound A-83]
query: Order each entry by recorded RXR Trans. efficacy (number in parentheses) γ, climbing from the minimum. Note for the reader: the ranking is given by listing the labels in the order requested.
result: 5, 2, 4, 1, 3

(I) CCOc1c(\C(CC)=C(F)/C=C/C(C)=C/C(=O)O)cc2c(c1Cl)C(C)(C)CC=C2C(C)C [Compound A-178]
(II) CCOc1cc2c(cc1\C(C)=C(F)/C=C/C(C)=C/C(=O)O)C=CCC2(C)C [Compound A-76]
query: // pick larger RXR Trans. efficacy (number in parentheses) γ from pair: I vs II Returns: label corresponding to the selected item.
result: II
(II: 109%, I: 46%)
